Exercise: state measured Rotation number, Relative value (%) for each of the compounds provided.
test system: 3α-hydroxysteroid dehydrogenase; assay: Rotation numbers of thio-NAD cycling reactions with 3α-hydroxyandrostanes; format: biochemical; conditions: relative to 5α-Androsterone = 100
Numbers only, in %.

# count of solved cases: 2
> print(dat)
                                   compound  recordedresult
1  C=C1CC[C@H]2[C@@H]3CC[C@H]4C[C@H](O)CC[C@]4(C)[C@H]3CC[C@]12C [5α-17-CH2, 3α-Hydroxy-17-methylene-5α-Androstane]              49
2  C[C@H]1CC[C@H]2[C@@H]3CC[C@@H]4C[C@H](O)CC[C@]4(C)[C@H]3CC[C@]12C [5β-17-CH3, 3α-Hydroxy-17β-methyl-5β-Androstane]              18

Proceeding to the next compound to report its Rotation number, Relative value (%).
Query: Fill in the blank: the reported Rotation number, Relative value (%) of C[C@H]1CC[C@H]2[C@@H]3CC[C@H]4C[C@H](O)CC[C@]4(C)[C@H]3CC[C@]12C [5α-17-CH3, 3α-Hydroxy-17β-methyl-5α-Androstane] is ____.
Response: 32

Where do the numbers come from? From patent US20180106727A1.
